Data origin: PubChem BioAssay (NCI)

Recorded TGI for the following compounds
# Tested on: UACC-257 melanoma
# MEASUREMENT_DESCRIPTION: NCI tumour cell line growth inhibition, 48 h

| COMPOUND | TGI |
| --- | --- |
| COC(=O)C(=O)C(CC(=O)Nc1cc(Cl)ccc1Cl)C(=O)OC (stereo not drawn) | > 100 µM |
| O=C1c2ccccc2N=C(c2cc3c(cc2Cl)Sc2nccn2S3(=O)=O)OS(=O)(=O)N1c1ccccc1 | > 100 µM |
| COc1ccc(-n2cc(-c3cc(OC)c(OC)c(OC)c3)nc2SCc2ccc(Cl)cc2)cc1OC | > 100 µM |

###

# Tested on: OVCAR-4 ovarian
# MEASUREMENT_DESCRIPTION: NCI tumour cell line growth inhibition, 48 h

| COMPOUND | TGI |
| --- | --- |
| Cc1ccccc1/C=C/c1csnn1 | > 100 µM |
| Nc1nc(Cl)cc(NCC2(CO)CCCCC2)n1 | > 100 µM |
| C/C=C1/CN2CCC34C(=C(C(=O)OC)C1CC23)Nc1ccc(O)cc14 (stereo not drawn) | > 100 µM |
